Record form. Attribute: GI50. Fill in for each entry.
Tested on: Malme-3M
assay info: NCI tumour cell line growth inhibition, 48 h
Active and inactive are the calls of the source. Cut-off read from the data, not from the text of the source: active = GI50 up to about 1.1 µM and inactive = higher.

// known answers, use as guide
molecule	GI50
CCOC(=O)/C(=C\c1ccccc1)C(=O)O	> 100 µM (inactive)
O=C1C=CC(=O)c2nc3c(cc21)CCC3	17.5 µM (inactive)

List the reported GI50 of each molecule below.
1. Cc1ccc(C2(N3CCOCC3)OC(C)(C)c3cccc4cccc2c34)cc1 (configuration not stated)
2. CCC(=O)C(CCN1CCC(N2C(=O)C(CCC#N)c3ccccc32)CC1)(c1ccccc1)c1ccccc1 (configuration not stated)
3. CCc1nc(N)nc(N)c1-c1ccc([N+](=O)[O-])c(Cl)c1
4. OC(c1cc2ccccc2[nH]1)C1(c2cccnc2)SCCCS1 (configuration not stated)

1: 16.8 µM (inactive); 2: 12.1 µM (inactive); 3: > 100 µM (inactive); 4: 87.3 µM (inactive)

List the reported GI50 of each molecule below.
1. CSc1nc(C#N)c(N)n1C
2. c1ccc2c(Cc3c[nH]c4ccccc34)c[nH]c2c1
3. Cc1ccc(/S(Cc2ccccc2)=N\S(=O)(=O)c2ccc(C)cc2)cc1 (configuration not stated)
4. O=c1[nH]nc(Cc2ccccc2)n1CCCl

["> 100 µM (inactive)", "31.3 µM (inactive)", "> 100 µM (inactive)", "> 100 µM (inactive)"]

====

Tested on: SF-295
assay info: NCI tumour cell line growth inhibition, 48 h
Calls of active or inactive are those of the source. No stated cut-off is given here; in the data, active = GI50 up to about 1.1 µM and inactive = higher.
measured endpoint: GI50

compound	reading
O=C1NC(=O)C(C(c2ccc(Cl)cc2)C2C(=O)NC(=O)NC2=O)C(=O)N1.c1ccncc1	> 100 µM (inactive)
COc1ccc2c(c1)CC1NC2Cc2ccccc21 (centres undefined)	> 100 µM (inactive)
O=C(C/C(=N/O)C(F)(F)F)c1cccs1	> 100 µM (inactive)

List the reported GI50 of each compound below.
1. COc1ccc2c(C(=O)c3c(C)n(CCN4CCOCC4)c4ccccc34)cccc2c1
2. CCOP(=O)(OCC)C(Nc1cccc([N+](=O)[O-])c1)c1ccccc1 (centres undefined)
3. CC1(C)c2ccccc2N2O[C@@H]3C(=O)N(c4ccccc4)C(=O)[C@@H]3C21c1ccccc1 (some centres undefined)
4. O=S(=O)(O)c1cc(/N=[N+](\[O-])c2ccc(/N=N/c3ccccc3)cc2S(=O)(=O)O)ccc1/C=C/c1ccc(/N=[N+](\[O-])c2ccc(/N=N/c3ccccc3)cc2S(=O)(=O)O)cc1S(=O)(=O)O
5. COCC1OC(Sc2ccccc2)C(O)C(OC)C1OC (centres undefined)
6. COC1(OC)CC2C=C(S(=O)(=O)c3ccccc3)C1N(Cc1ccccc1)C2=O (centres undefined)

["16.8 µM (inactive)", "> 100 µM (inactive)", "> 100 µM (inactive)", "> 58.3 µM (inactive)", "> 100 µM (inactive)", "50.9 µM (inactive)"]

====

Tested on: SF-295
assay info: NCI tumour cell line growth inhibition, 48 h
Active and inactive are the calls of the source. No stated cut-off is given here; in the data, active = GI50 up to about 1.1 µM and inactive = higher.
measured endpoint: GI50

// known answers, use as guide
molecule	GI50
O=C1C(Cl)=C(N2CCN(c3ccccn3)CC2)C(=O)c2ncccc21	5.69 µM (inactive)
CC(O)C1(CNc2cc(Cl)nc(N)n2)CC(CCc2ccccc2)C1 (centres undefined)	14.4 µM (inactive)
COC(=O)C12CCCN1CCC2	> 100 µM (inactive)
COc1ccc2c3c1OC1C(=O)C=CC4(O)C(C2)NCC[C@@]314 (some centres undefined)	3.69 µM (inactive)
CC(C)c1cccc(C(C)C)c1NC(=S)NN=C1C=C(C(C)(C)C)C(=O)C(C(C)(C)C)=C1	31 µM (inactive)
N/N=C1\C(=O)N(CCc2ccccc2)C(=O)C1C(=O)NCCc1ccccc1 (centres undefined)	> 100 µM (inactive)
C/C(=C/CC[C@](C)(OC1OC(CO)C(O)C(O)C1OC1OC(C)C(O)C(O)C1O)[C@H]1CC[C@]2(C)[C@@H]1CC[C@@H]1[C@@]3(C)CC[C@H](O)C(C)(C)[C@@H]3C[C@H](O)[C@]12C)CO (some centres undefined)	> 100 µM (inactive)
O=c1[nH]nc(Cc2ccccc2)n1CCCl	> 100 µM (inactive)

Now consider a different molecule.
Field: GI50 (SF-295). Entry: `CCCc1c2c([nH]c(=O)c1C)C(=O)c1[nH]c(=O)c(C)c(CCC)c1C2=O`
47.6 µM (inactive)
